FYI, the data here is from ChEMBL document CHEMBL1201862.

test system: K562; assay: NCI tumour cell line growth inhibition, 48 h
Activity calls are given as the source filed them. Rule as the data show it: active = GI50 up to about 1.1 µM and inactive = higher.
Pick one and only one: T = active, F = inactive

Examples with answers:
[
  {
    "COMPOUND": "CCCNc1ncnc2[nH]ncc12",
    "QUALITATIVE LABEL": "F"
  },
  {
    "COMPOUND": "O=C(CCCN1CCC(C(O)c2ccc(F)cc2)CC1)c1ccc(F)cc1 (configuration not stated)",
    "QUALITATIVE LABEL": "F"
  },
  {
    "COMPOUND": "Cc1cc2nnn(C3CCCO3)c2cc1C (configuration not stated)",
    "QUALITATIVE LABEL": "F"
  },
  {
    "COMPOUND": "O=C(N/C(=C\\c1ccc(Oc2ccc(Cl)c(Cl)c2)cc1)c1nc2ccccc2[nH]1)c1ccccc1",
    "QUALITATIVE LABEL": "F"
  },
  {
    "COMPOUND": "OC1C2CCC3C2CC(C(O)(c2ccccc2)c2ccccc2)C13 (configuration not stated)",
    "QUALITATIVE LABEL": "F"
  }
]

Tell me the assay call for c1ccc(C2N3CCCCC3[C@@H]3c4[nH]c5ccccc5c4CCN23)cc1 (some centres not stated) please.
F

For `CCOC(=O)CC[C@H](NC(=O)[C@H](N)Cc1ccc(N(CCCl)CCCl)cc1)C(=O)OCC` , which call appears in the assay record?
F

Which result was noted for this compound in the test: `CC(C)(C)OC(=O)N[C@H]1CCN(C2CCCCC2)C1=O`
F

* * *

system: OVCAR-3; test: NCI tumour cell line growth inhibition, 48 h
Calls of active or inactive are those of the source. No stated cut-off is given here; in the data, active = GI50 up to about 1.1 µM and inactive = higher.
MEASURE NAME: GI50

Check out these entries, answers already filled in.
[
  {
    "COMPOUND": "CCOC(=O)c1ccc(C(=O)OCC)n1-c1cc2cc(c1)CSCc1cc(cc(-n3c(C(=O)OCC)ccc3C(=O)OCC)c1)CSC2",
    "OBSERVED VALUE": "> 10 µM (inactive)"
  },
  {
    "COMPOUND": "O=C1C2c3[nH]c4ccccc4c3[C@@H]3CCCCC3C2C(=O)N1c1ccccc1 (stereo not given in full)",
    "OBSERVED VALUE": "15.4 µM (inactive)"
  },
  {
    "COMPOUND": "C/C(=N\\NC(=S)Nc1ccccc1)c1nc2cccnc2[nH]1",
    "OBSERVED VALUE": "0.456 µM (active)"
  },
  {
    "COMPOUND": "Oc1cc(O)c2c(c1)O[C@H](c1cc(O)c(O)c(O)c1)[C@H](O)C2 [EPIGALLOCATECHIN]",
    "OBSERVED VALUE": "47 µM (inactive)"
  }
]

Could I get GI50 for every one of these entries?
1. COC(=O)C1C(O)CCC2CN3CCc4c([nH]c5ccccc45)C3CC21 (stereo not given)
2. CSc1nc(NC2OC(COC(C)=O)C(OC(C)=O)C(OC(C)=O)C2OC(C)=O)c(/N=C(\C)C(C)=O)c(=O)n1C (stereo not given)
3. C[N+](C)(C)c1ncnc2c1ncn2C1CC(O)C(CO)O1 (stereo not given)
4. CCN(CC)CCn1nc2c3c(c(NCCN)ccc31)Sc1cc(O)ccc1-2

1: > 100 µM (inactive); 2: > 100 µM (inactive); 3: > 100 µM (inactive); 4: 2.43 µM (inactive)

Below is a list of compounds. For each, state its recorded GI50.
1. Cc1ccc(/C=N/Nc2ccccn2)s1
2. Cc1c2c(cc3c1[nH]c1ccccc13)C(c1ccc(Cl)cc1)=NCC2

["> 55.7 µM (inactive)", "0.29 µM (active)"]

* * *

tested on: ACHN; assay: NCI tumour cell line growth inhibition, 48 h
Activity calls are given as the source filed them. Rule as the data show it: active = GI50 up to about 1.1 µM and inactive = higher.
MEASURE NAME: GI50

Previously resolved entries follow.
[
  {
    "COMPOUND": "COc1cc(OC)c(OC)cc1/C=N/N=C(\\N)NO",
    "MEASURE NAME": "GI50",
    "OBSERVED VALUE": "56.2 µM (inactive)"
  },
  {
    "COMPOUND": "O=Cc1cc(O)ccc1Br",
    "MEASURE NAME": "GI50",
    "OBSERVED VALUE": "19.8 µM (inactive)"
  },
  {
    "COMPOUND": "CCCCCCC1NN(C(C)=O)C(CCCCCC)NN1C(C)=O (stereo not drawn)",
    "MEASURE NAME": "GI50",
    "OBSERVED VALUE": "> 100 µM (inactive)"
  },
  {
    "COMPOUND": "CCNC(=S)N/N=C/c1ccccn1",
    "MEASURE NAME": "GI50",
    "OBSERVED VALUE": "5.69 µM (inactive)"
  },
  {
    "COMPOUND": "COc1cc2c(cc1OC)C(=O)N(NC1=NCCN1)C2=O",
    "MEASURE NAME": "GI50",
    "OBSERVED VALUE": "> 100 µM (inactive)"
  },
  {
    "COMPOUND": "CN(C(=O)C12C3C4C1C1C2C3C41C(N)=O)C(C)(C)C (stereo not drawn)",
    "MEASURE NAME": "GI50",
    "OBSERVED VALUE": "> 100 µM (inactive)"
  }
]

For every item below, please supply its GI50.
1. CC(=O)c1[nH]c(Nc2ccc(C)cc2)c(C(=S)Nc2ccccc2)c1N
2. Cc1cccc(-c2nc3ccc([N+](=O)[O-])cc3c(=O)o2)c1
3. CC(=O)OCC1OC(n2c(=O)[nH]c(=O)c3nn[nH]c32)C(OC(C)=O)C(OC(C)=O)C1OC(C)=O (stereo not drawn)
4. c1ccc2c(c1)OC(N1CCCC1)c1cnc(N3CCOCC3)nc1-2 (stereo not drawn)
5. CN(C)CC1CCC/C(=C\c2ccc(OC(=O)c3ccc(Cl)cc3)cc2)C1=O (stereo not drawn)
6. CC1(CO)OC(n2cnc3c(N)ncnc32)C(O)C1O (stereo not drawn)
7. COc1ccc2c(c1)OC[C@@H]1c3cc(O)c(OCc4ccccc4)cc3O[C@H]21
8. COc1ccc(/C=C2\NC(=S)N(/C=C3\C(=O)Oc4ccccc4C3=O)C2=O)cc1OC

18.8 µM (inactive)
83.8 µM (inactive)
> 100 µM (inactive)
38.2 µM (inactive)
3.57 µM (inactive)
> 100 µM (inactive)
22.9 µM (inactive)
91 µM (inactive)

Parameter requested: GI50. Apply to each item below.
1. CCOC(=O)c1sc2c(c1O)c(=O)n(-c1ccccc1)c(=S)n2-c1ccccc1
2. COc1cc2c(cc1OCc1ccccc1)NC(=O)[C@@H]1CCCN1C2=O
3. CC(C)(C)c1cc(C(=O)Nc2cc(Br)c(Br)cc2S(N)(=O)=O)cc(C(C)(C)C)c1O
4. CCCCCCCCOC1C(O)C(O)C(O)C(O)C12CO2 (stereo not drawn)
5. CCCNc1ncnc2[nH]ncc12

1. 81.1 µM (inactive)
2. > 100 µM (inactive)
3. 11.3 µM (inactive)
4. 53.8 µM (inactive)
5. > 100 µM (inactive)

Provide GI50 values for the following items, in order.
1. COc1ccc(CC2COc3cc(O)cc(O)c3C2=O)cc1O (stereo not drawn)
2. O=C(NCCCNCCCCNCCCNC(=O)C(F)(F)F)C(F)(F)F
3. Nc1nc(-c2ccc3ccccc3c2)cc(-c2cc(-c3ccc4ccccc4c3)nc(N)n2)n1
4. Cc1ccccc1NC(=O)CSc1nnc(Cc2ccccc2)o1

1: 24.4 µM (inactive); 2: > 100 µM (inactive); 3: > 100 µM (inactive); 4: > 100 µM (inactive)

* * *

tested on: EKVX; test: NCI tumour cell line growth inhibition, 48 h
Active and inactive are the calls of the source. No stated cut-off is given here; in the data, active = GI50 up to about 1.1 µM and inactive = higher.
Valid outcomes are listed here; reply with one: 1 (yes) (active), 0 (no) (inactive)

Would you please look over these solved cases?
[
  {
    "MOLECULE": "CC1(C)C(=O)C(C)(C)C12SSC1(S2)C(C)(C)C(=O)C1(C)C",
    "QUALITATIVE LABEL": "0 (no)"
  },
  {
    "MOLECULE": "COc1cc(OC)c(OC)cc1/C=N/N=C(\\N)NO",
    "QUALITATIVE LABEL": "0 (no)"
  }
]

Please share the test call associated with `O=C1Oc2ccccc2C(=O)/C1=C\NC(=S)c1ccncc1` .
0 (no)

Entry CCNC1CC(C(C)(C)NCC)CC=C1C (configuration not stated) : call = ?
0 (no)

# outcome recorded in this test, key = `O=C(N/C(=C\c1ccc(Oc2ccc(Cl)c(Cl)c2)cc1)c1nc2ccccc2[nH]1)c1ccccc1`
0 (no)

Which outcome was assigned to `Cc1c2c(cc3c1[nH]c1ccccc13)C(c1ccc(Cl)cc1)=NCC2` in this test?
1 (yes)

Status in this test for `CC(C)(C)[C@H]1NC(=O)CN1C(=O)OCc1ccccc1` ?
0 (no)

Hey, what did the test say about `CO/C(=N\N=Cc1ccccc1)c1ccncc1` ?
0 (no)

Recorded test call requested for COC(=O)C1=C(C)NC(C)=C([N+](=O)[O-])C1c1cccc(NO)c1 (configuration not stated)
0 (no)

Tell me the recorded outcome of this test for Cc1ccc(C2(O)c3ccccc3C(=O)N(C)C2(O)c2ccc(C)cc2)cc1 (configuration not stated) .
0 (no)
